biological target: human LILRB2 expressed on cells (human, UniProt Q8N423 22-597); assay: cell-based or functional assay
Sequence (Q8N423 other isoform, or with tags, fused parts or gaps limits assumed): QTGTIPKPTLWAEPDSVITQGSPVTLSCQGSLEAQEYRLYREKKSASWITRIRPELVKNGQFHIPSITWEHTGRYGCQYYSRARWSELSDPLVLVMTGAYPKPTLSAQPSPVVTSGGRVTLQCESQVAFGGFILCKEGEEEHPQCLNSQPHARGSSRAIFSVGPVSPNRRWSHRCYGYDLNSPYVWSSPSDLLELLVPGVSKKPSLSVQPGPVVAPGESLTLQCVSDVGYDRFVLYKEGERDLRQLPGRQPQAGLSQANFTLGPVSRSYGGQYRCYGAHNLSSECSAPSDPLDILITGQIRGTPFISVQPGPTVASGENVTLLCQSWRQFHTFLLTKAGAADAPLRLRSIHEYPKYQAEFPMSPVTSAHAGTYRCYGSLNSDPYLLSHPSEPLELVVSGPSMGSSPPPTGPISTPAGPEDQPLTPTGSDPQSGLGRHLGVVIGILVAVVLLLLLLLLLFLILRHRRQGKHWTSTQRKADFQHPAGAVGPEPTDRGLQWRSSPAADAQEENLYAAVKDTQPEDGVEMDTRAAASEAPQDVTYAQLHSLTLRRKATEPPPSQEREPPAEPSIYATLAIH
test-readout: EC50, IL-6 production by LPS-stimulated HMDMs (nM)
Supply the numeric figure in nM, leaving out any unit text.

{"binder": "J-19.h3 (antibody, human IgG4 S228P, kappa, V domains shown, Humanized, human IgG4 backbone) VH: QVTLKESGPSLVKPTQTLTLTCTFSGFSLNTYAMGVSWIRQPPGKALEWLASIWWNGNKYNNPSLKSRLTITKDTSKNQVVLKVTNMDPADTATYYCAHSRIIRFTDYVMDAWGQGTTVTVSS VL: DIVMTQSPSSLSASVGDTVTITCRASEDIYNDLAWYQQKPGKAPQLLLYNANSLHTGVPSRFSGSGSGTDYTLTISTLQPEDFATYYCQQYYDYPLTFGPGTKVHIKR", "experimental-result": 0.083}
{"binder": "J-19.h2 (antibody, human IgG4 S228P, kappa, V domains shown, Humanized, human IgG4 backbone) VH: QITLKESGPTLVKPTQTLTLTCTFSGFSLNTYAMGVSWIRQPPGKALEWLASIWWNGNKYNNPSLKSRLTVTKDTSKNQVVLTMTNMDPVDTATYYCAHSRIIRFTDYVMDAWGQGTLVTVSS VL: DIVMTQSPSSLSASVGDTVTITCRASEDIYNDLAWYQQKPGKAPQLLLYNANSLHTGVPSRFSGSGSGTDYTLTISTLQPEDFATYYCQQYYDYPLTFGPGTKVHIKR", "experimental-result": 0.186}

Here is the next item to consider.
Please report the recorded EC50, IL-6 production by LPS-stimulated HMDMs for J-19.h1 (antibody, human IgG4 S228P, kappa, V domains shown, Humanized, human IgG4 backbone) VH: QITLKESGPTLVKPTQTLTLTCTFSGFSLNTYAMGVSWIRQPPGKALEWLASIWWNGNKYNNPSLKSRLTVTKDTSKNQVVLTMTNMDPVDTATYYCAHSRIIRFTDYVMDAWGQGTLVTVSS VL: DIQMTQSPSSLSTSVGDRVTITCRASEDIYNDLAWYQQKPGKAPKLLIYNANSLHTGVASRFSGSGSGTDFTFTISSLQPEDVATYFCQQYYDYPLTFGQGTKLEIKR .
0.085
